Below, each entry is listed alongside its reported IC50.
Target: recombinant arginase from Leishmania mexicana (LmARG) (Leishmania mexicana, UniProt Q6TUJ5)
Assay: Inhibition of recombinant LmARG, colorimetric urea assay
Settings: recombinant LmARG; read-out: I50 (concentration that inhibits 50% enzyme activity), LmARG
readout name: IC50 (µM)

INSERT INTO measurements (smiles_entry, readout_name, endpoint_result) VALUES
  ('COC(=O)Nc1nc2cc(Cl)ccc2n1C', 'IC50', 52),
  ('CSc1nc2cc(C(N)=O)c(Cl)cc2[nH]1', 'IC50', 82);

###

Molecular target: recombinant arginase from Leishmania mexicana (LmARG) (Leishmania mexicana, UniProt Q6TUJ5)
Test: Inhibition of recombinant LmARG, colorimetric urea assay
Type: biochemical
Settings: read-out: % Inhibition LmARG [200 μM]
readout name: inhibition at 200 µM (%)

INSERT INTO results (smiles_entry, readout_name, endpoint_result) VALUES
  ('COC(=O)c1cc2c(cc1Cl)nc(SCC=NNC(N)=O)n2C', 'inhibition at 200 µM', 60),
  ('COC(=O)c1cc2c(cc1Cl)nc(SCCNC(=N)N)n2C', 'inhibition at 200 µM', 40),
  ('CNC(=O)c1nc2ccc(Cl)cc2n1C', 'inhibition at 200 µM', 56),
  ('CNc1ccc(Cl)cc1N', 'inhibition at 200 µM', 33);

Values were extracted from paper PMC8705706.
